Target: T1, recombinant monkey TfR (r monkey TfR: Sino Biological Inc.) (cynomolgus monkey (Macaca fascicularis), UniProt Q5RDH6 89-760 (Pongo abelii entry))
T1 construct: Bought product; also called r monkey TfR-ECD (Histag); cynomolgus monkey TfR; not shown: histidine tag attached to the N-terminus
T1 chain: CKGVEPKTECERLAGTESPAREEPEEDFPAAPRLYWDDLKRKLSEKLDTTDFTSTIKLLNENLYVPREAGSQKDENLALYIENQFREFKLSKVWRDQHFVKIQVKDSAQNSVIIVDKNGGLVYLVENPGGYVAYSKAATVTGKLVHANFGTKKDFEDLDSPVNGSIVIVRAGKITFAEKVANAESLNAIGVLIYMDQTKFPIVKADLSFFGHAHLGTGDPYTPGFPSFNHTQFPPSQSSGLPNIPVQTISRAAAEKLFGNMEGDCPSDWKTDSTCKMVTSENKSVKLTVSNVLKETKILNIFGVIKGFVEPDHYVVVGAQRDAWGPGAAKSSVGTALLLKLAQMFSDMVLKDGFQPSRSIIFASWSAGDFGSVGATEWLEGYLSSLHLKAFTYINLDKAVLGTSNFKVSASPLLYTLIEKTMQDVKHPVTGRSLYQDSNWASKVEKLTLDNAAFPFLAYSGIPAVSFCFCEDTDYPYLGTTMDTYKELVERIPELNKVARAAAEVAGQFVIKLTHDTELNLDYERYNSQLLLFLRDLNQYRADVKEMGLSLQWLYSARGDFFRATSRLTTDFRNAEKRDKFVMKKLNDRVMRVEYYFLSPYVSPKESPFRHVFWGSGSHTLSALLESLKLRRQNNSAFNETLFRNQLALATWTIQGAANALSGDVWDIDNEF
Test: BLI (Octet RED96), His-tagged TfR ECD loaded on Ni-NTA sensor, antibody as analyte
PROPERTY: kon (M⁻¹ s⁻¹)
Numbers only, in M⁻¹ s⁻¹.

Example entries and their recorded answers appear below.
{"BINDER": "anti-hTfR antibody No. 10 (antibody, V domains shown, Mouse hybridoma antibody purified on Protein G; also called mouse anti-hTfR antibody No. 10; product of Clone 10 line) VH: EVQLQESGGGLVKPGGSLKLSCEASGITFRNYAMSWVRQTPEKRLEWVATISSYGGYTYYADSVKGRFTVSRDNAGNTLYLQMSSLRSEDTAMYHCARQEVPYPYPMDNWGQGTSVIVSS VL: DIVMTQTPSSLSASLGERVSLTCRPSQEISGYLSWLQQKPDGTIKRLIYAASTLDSGVPKRFSGSRSGSDYSLTISSLESEDFADYYCLQYASYPRTFGGGTKLEIK", "PROPERTY": "kon", "RECORDED_MEASUREMENT": 387000}
{"BINDER": "anti-hTfR antibody No. 8 (antibody, V domains shown, Mouse hybridoma antibody purified on Protein G; also called mouse anti-hTfR antibody No. 8; product of Clone 8 line) VH: EVQLQESGPGLVAPSQSLSITCTVSGFSLTTYGVSWIRQPPGKGLEWLGIIWGDGSTNYRSALISRLSISKDNSKNQVFLKLNSLQTDDTATYYCAKPDDYWGQGTSVTVSS VL: DIVLTQSPAIMSASLGEEITLTCSASSSVSYMHWYQQKSGTSPKVLIYGTSNLASEVPSRFSGSGSGTFYSLTISSVEAEDAADYYCHQWSSYPWTFGGGTKLEIK", "PROPERTY": "kon", "RECORDED_MEASUREMENT": 552000}
{"BINDER": "anti-hTfR antibody No. 7 (antibody, V domains shown, Mouse hybridoma antibody purified on Protein G; also called mouse anti-hTfR antibody No. 7; product of Clone 7 line) VH: EVQLQESGGALVKPGGSLKVSCEASGITFRNYFMSWVRQTPEKRLEWVATISSAGGYTYYADSVKGRFTISRDNAGNTLYLQMSSLRSEDTAMYFCARQEVPYPYAMDYWGQGTSVIVSS VL: DIVLTQSPVIMSASLGEEITLTCSASSSVNYIHWYQQKSGTSPKVLIYQTSNLASGVPSRFSGSRSGTFYSLKISSVEAEDAADYYCHQWSSYPWTFGGGTKLEIK", "PROPERTY": "kon", "RECORDED_MEASUREMENT": 266000}
{"BINDER": "anti-hTfR antibody No. 3 (antibody, V domains shown, Mouse hybridoma antibody purified on Protein G; also called mouse anti-hTfR antibody No. 3; product of Clone 3 line) VH: EVQLQESGAELVRPGTSVKISCKASGYTFMNYWLGWVKQRPGHGLEWIGDIYPGGDYPTYSEKFKVKAILTADTSSSSVYLHLSSLTSEDSAVYFCARSGNYDEVAYWGQGTLVTVST VL: DIVMTQTTLSLPVSLGDQASISCRSSQSLVHSNGNTYLHWYLQKPGQSPKLLIYKVSNRFSGVPDRFSGSGSGTDFTLKISRVEAEDLGVFFCSQSTHVPWTFGGGTKLEIKR", "PROPERTY": "kon", "RECORDED_MEASUREMENT": 389000}
{"BINDER": "anti-hTfR antibody No. 1 (antibody, V domains shown, Mouse hybridoma antibody purified on Protein G; also called mouse anti-hTfR antibody No. 1; product of Clone 1 line) VH: EVQLQESGGGLVQPGGSLKLSCAASGLTFSNYGMSWIRQTPDKRLELVANINTNGGSTYYPDSVKGRFTISRDNAKNTLYLQMNSLKSEDTAIYYCTNNRYDEDYWGQGTSVTVSS VL: DIVLTQSSKFMSTSVGDRVSITCKASQDVNSAVAWFQQKPGQSPKLLIYWTSTRHTGVPDRFTGSGSGTVYTLTISSVQAEDLALYYCQQHYSTPRTFGGGTKLEIKR", "PROPERTY": "kon", "RECORDED_MEASUREMENT": 280000}

Kindly give each listed record's kon.
1. anti-hTfR antibody No. 6 (antibody, V domains shown, Mouse hybridoma antibody purified on Protein G; also called mouse anti-hTfR antibody No. 6; product of Clone 6 line) VH: EVQLQESGPGLVAPSQSLSITCSVSGFSLSTYGVYWVRQPPGKGLEWLGIIWGDGSTNYHSALISRLTISKDNSKSQVFLKLNSLQTADTATYYCAKPDDVWGAGTTVTVSS VL: DIVLTQTPSSLSASLGERVSLTCRASQEISGYLSWLQQKPDGTIKRLIYAASTLDSGVPKRFSGSRSGSDYSLTISSLESEDFADYYCLQYSSYPRTFGGGTKLEIK
2. anti-hTfR antibody No. 13 (antibody, V domains shown, Mouse hybridoma antibody purified on Protein G; also called mouse anti-hTfR antibody No. 13; product of Clone 13 line) VH: EVQLQESGAELVRPGSSVKISCKASGYAFSIYWINWLKQRPGQGLEWIGQIYPGNGDTNYNGKFKGKATLTADKSSNTVYMRLSSLTSEDSAVYFCGRWGDDYAMDFWGQGTSVTVSS VL: DIVITQTPATLSVTPGDRVSLSCRASQSIRNYLHWYQQKSHESPRLLIKYASQSISGIPSRFSGSGSGTDFTLTINSVETEDFGMYFCQQTNSWPYTFGGGTKLEIK

(A)
[495000, 591000]
